- systemName: Human HER3, endogenous, on human cancer cell lines (SK-Br-3, MCF7, BT-474) (human, UniProt P21860 20-1342)
- Sequence (P21860 20-1342): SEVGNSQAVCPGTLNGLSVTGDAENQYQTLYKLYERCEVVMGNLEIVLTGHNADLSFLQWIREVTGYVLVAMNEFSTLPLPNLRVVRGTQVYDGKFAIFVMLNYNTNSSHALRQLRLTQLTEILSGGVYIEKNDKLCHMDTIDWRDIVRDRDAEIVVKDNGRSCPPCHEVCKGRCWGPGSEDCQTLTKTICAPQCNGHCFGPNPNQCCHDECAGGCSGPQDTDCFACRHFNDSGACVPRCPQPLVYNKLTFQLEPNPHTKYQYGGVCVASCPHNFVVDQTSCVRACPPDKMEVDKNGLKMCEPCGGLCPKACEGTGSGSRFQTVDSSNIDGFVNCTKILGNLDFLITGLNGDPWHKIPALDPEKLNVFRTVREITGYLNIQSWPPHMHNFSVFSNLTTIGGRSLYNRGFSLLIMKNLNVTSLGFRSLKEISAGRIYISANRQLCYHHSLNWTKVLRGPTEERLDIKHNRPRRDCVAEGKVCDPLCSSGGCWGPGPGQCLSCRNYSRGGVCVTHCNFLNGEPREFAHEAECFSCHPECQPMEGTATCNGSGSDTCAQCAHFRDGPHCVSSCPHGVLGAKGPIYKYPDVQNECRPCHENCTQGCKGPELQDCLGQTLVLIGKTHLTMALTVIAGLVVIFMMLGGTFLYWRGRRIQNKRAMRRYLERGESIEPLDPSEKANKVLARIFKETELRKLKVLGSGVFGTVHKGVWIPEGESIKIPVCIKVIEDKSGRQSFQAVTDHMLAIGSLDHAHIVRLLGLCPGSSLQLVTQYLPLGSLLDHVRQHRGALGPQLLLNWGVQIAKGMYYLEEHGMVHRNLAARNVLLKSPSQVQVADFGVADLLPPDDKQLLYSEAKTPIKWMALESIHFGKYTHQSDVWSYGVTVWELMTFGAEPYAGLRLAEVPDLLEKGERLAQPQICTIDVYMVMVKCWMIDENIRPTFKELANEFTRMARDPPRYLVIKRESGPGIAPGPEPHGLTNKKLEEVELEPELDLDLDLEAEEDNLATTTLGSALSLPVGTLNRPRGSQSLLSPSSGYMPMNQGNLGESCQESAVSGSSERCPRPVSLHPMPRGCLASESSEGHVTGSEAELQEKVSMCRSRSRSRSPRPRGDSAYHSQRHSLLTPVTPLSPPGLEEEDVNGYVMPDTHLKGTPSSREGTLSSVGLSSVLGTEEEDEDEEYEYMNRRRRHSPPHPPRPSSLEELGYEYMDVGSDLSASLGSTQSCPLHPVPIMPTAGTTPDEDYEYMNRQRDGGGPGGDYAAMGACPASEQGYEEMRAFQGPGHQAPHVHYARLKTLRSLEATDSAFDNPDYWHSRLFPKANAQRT
- testSummary: cell-based or functional assay

binder	unitOfMeasurement	BT474 pHER3 IC50
MOR13765 (antibody, human IgG1, kappa, V domains shown, tested as IgG) VH: QVQLVQSGAEVKKPGESLKISCKGSGYSFTGSWVAWVRQMPGKGLEWMGIIYPGTSDTIYSPSFQGQVTISADKSISTAYLQWSSLKASDTAMYYCARVHIIQPPSAWSYNAMDVWGQGTLVTVSS VL: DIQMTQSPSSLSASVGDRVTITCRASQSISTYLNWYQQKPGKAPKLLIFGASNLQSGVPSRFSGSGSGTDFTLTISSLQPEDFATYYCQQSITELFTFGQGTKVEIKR	pM	806
MOR13768 (antibody, human IgG1, kappa, V domains shown, tested as IgG) VH: QVQLVQSGAEVKKPGESLKISCKGSGYSFTSSWVAWVRQMPGKGLEWMGIIYPGQSDTIYSPSFQGQVTISADKSISTAYLQWSSLKASDTAMYYCARVHIIQPPSAWSYNAMDVWGQGTLVTVSS VL: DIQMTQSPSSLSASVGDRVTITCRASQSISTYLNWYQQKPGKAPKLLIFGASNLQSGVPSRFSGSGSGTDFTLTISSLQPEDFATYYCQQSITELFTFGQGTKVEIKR	pM	437
MOR13761 (antibody, human IgG1, kappa, V domains shown, tested as IgG) VH: QVQLVQSGAEVKKPGESLKISCKGSGYSFTQTWVAWVRQMPGKGLEWMGIIYPGQSDTIYSPSFQGQVTISADKSISTAYLQWSSLKASDTAMYYCARVHIIQPPSAWSYNAMDVWGQGTLVTVSS VL: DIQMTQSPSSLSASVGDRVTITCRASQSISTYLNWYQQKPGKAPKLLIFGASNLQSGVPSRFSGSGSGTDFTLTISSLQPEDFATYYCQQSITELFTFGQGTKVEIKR	pM	364
MOR12923 (antibody, human IgG1, kappa, V domains shown) VH: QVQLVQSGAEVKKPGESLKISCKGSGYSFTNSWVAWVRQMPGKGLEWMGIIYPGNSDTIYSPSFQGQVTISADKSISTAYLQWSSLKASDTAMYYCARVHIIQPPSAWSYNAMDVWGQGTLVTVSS VL: DIQMTQSPSSLSASVGDRVTITCRASQSISTYLNWYQQKPGKAPKLLIFGASNLQSGVPSRFSGSGSGTDFTLTISSLQPEDFATYYCQQSMYLPFTFGQGTKVEIKR	pM	1050
